System: IGROV
Details: Ovary
// -1 strictly below 6 µM in TGI IGROV; 1 otherwise

**Q:** Record COC1=C(C)C(=O)C2=C(C1=O)C(CNC(=O)C(C)N)N1CC3Cc4cc(C)c(OC)c(O)c4C(N3)C1C2 (stereo not shown) [Safracin E] ; criterion: TGI IGROV no lower than 6 µM. Met?
**A:** 1

**Q:** Now consider CCOC1=C(C)C(=O)C2=C(C1=O)C(CNC(=O)C(C)N)N1CC3Cc4cc(C)c(OCC)c(O)c4C(C1C2)N3C (stereo not shown) [Safracin A (OEt)] .
**A:** -1

**Q:** Now consider COc1c(C)cc2c(c1O)C1NC(C2)C(O)N2C(CNC(=O)C(C)N)c3c(cc(C)c(OC)c3O)CC12 (stereo not shown) [Safracin P-19B] and answer again.
**A:** 1

**Q:** Item: CCOC1=C(C)C(=O)C2=C(C1=O)C(CNC(=O)C(C)N)N1C(O)C3Cc4cc(C)c(OCC)c(O)c4C(C1C2)N3C (stereo not shown) [Safracin B (OEt)]
**A:** -1

**Q:** What about this molecule? COc1c(C)cc2c(c1O)C1C3Cc4cc(C)c(OC)c(O)c4C(CNC(=O)C(C)N)N3CC(C2)N1C (stereo not shown) [Safracin P-22A]
**A:** 1

**Q:** For COc1c(C)cc2c(c1O)C1C3Cc4cc(C)c(OC)c(O)c4C(CNC(=O)C(C)N)N3C(O)C(C2)N1C (stereo not shown) [Safracin P-22B] then?
**A:** -1
